B1: library; a variant is named by its letters at N, in order (parent)
chain: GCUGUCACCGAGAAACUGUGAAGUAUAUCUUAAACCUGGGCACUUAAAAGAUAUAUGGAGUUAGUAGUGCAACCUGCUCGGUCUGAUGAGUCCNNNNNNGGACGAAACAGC

variants of: B1; experiment: normalized RNA/DNA level with ligand (relative to sTRSVctl = 100) (log10 (% of sTRSVctl)); HEK293T; ligand: cyclic di-GMP (c-di-GMP-II aptamer); ligand concentration (+) RNA-Seq: 1 mM; higher = less ribozyme self-cleavage, higher mRNA level; details: reporter: mCherry (pCS4076), ligand present: yes
normalized RNA/DNA level with ligand (log10) by entry:
// return a plain number; no unit text

GCUGUCACCGAGAAACUGUGAAGUAUAUCUUAAACCUGGGCACUUAAAAGAUAUAUGGAGUUAGUAGUGCAACCUGCUCGGUCUGAUGAGUCCAUUCGUGGACGAAACAGC ... 1.86
GCUGUCACCGAGAAACUGUGAAGUAUAUCUUAAACCUGGGCACUUAAAAGAUAUAUGGAGUUAGUAGUGCAACCUGCUCGGUCUGAUGAGUCCGAGCGUGGACGAAACAGC ... 1.9

Query: What value of normalized RNA/DNA level with ligand (log10) has been recorded for this entry: `GCUGUCACCGAGAAACUGUGAAGUAUAUCUUAAACCUGGGCACUUAAAAGAUAUAUGGAGUUAGUAGUGCAACCUGCUCGGUCUGAUGAGUCCCCCCGGGGACGAAACAGC`
Reply: 1.94
